Exercise: state measured Percent change in total protein at 3 µM for each of the molecules provided.
- System: C2C12 skeletal myotubes
- experiment summary: Total cellular protein content in C2C12 skeletal myotubes (BCA)
- Type: cell-based, Mouse
- condition notes: Mus musculus, C2C12; 3 μM, 48 h incubation, vs vehicle (0.1% DMSO)
Numbers only, in %.

molecule	Percent change in total protein at 3 µM / %
CC1=C(CC[C@H](C)CN(C)C)O[C@H]2C[C@H]3[C@@H]4CC[C@H]5C[C@@H](O)CC[C@]5(C)[C@H]4CC[C@]3(C)[C@@H]12	9.1
CC1=C(CC[C@H](C)CNC(=O)OC(C)(C)C)O[C@H]2C[C@H]3[C@@H]4CC[C@H]5CC(NCCO)CC[C@]5(C)[C@H]4CC[C@]3(C)[C@@H]12 (some centres unmarked)	16.1
CC1=C(CC[C@H](C)CNC(C)C)O[C@H]2C[C@H]3[C@@H]4CC[C@H]5C[C@@H](O)CC[C@]5(C)[C@H]4CC[C@]3(C)[C@@H]12	12.2
CC1=C(CC[C@H](C)CNC(=O)OC(C)(C)C)O[C@H]2C[C@H]3[C@@H]4CC[C@H]5C[C@@H](O)CC[C@]5(C)[C@H]4CC[C@]3(C)[C@@H]12	10.8

// switching to the query molecule
`CC(=O)NC[C@@H](C)CCC1=C(C)[C@H]2[C@H](C[C@H]3[C@@H]4CC[C@H]5C[C@@H](OC(C)=O)CC[C@]5(C)[C@H]4CC[C@@]32C)O1` has a reported Percent change in total protein at 3 µM of 18.1
